# test system: T1, murine CD22 protein (ACROBiosystems, SI2-M52Ha) (murine, UniProt P35329 22-708)
# T1 construct: extracellular domain; also called murine CD22-ECD; murine CD22-ECD-His
# T1 sequence (looked up): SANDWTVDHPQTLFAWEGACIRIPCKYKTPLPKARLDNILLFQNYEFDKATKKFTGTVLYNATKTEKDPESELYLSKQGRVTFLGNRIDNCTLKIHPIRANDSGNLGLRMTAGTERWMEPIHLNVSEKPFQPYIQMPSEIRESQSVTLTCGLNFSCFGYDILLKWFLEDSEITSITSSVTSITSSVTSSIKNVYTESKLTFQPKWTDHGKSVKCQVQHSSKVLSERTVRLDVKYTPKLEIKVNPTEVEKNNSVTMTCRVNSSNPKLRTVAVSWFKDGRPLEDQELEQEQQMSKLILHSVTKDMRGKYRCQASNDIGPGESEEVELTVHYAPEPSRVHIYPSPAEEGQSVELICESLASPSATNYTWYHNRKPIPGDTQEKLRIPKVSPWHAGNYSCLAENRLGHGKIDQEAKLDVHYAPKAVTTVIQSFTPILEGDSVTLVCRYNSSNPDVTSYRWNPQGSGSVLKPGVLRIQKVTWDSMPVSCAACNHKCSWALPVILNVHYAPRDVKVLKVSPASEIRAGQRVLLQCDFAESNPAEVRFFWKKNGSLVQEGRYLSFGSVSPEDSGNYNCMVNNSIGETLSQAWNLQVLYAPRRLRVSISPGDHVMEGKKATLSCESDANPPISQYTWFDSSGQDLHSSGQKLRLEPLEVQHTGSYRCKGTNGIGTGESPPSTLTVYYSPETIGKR
# procedure summary: ELISA, coated murine CD22, 0.001 nM Ab
The entries below come with measured OD450 values attached.
measurement type: OD450 (OD450)

1) F1.172.13 human-murine chimeric antibody (antibody, human IgG1, kappa, V domains shown, Chimeric, human IgG1 / kappa) VH: QVTLKESGPGILQSSQTLSLTCSFSGFSLSTSGMGVSWIRQPSGKGLEWLAHIYWDDDKRYNPSLKSRLTISKDTSRNQVFLKITSVDTADTATYYCARAPPPNWDEYYFDYWGQGTTLTVSS VL: DIQMTQSPASLSASVGETVTITCRASGNIHNSLAWYQQKQGKSPQLLVHNAKTLADGVPSRFSGSGSGTQYSLKINSLQPEDFGSYYCQHFWSTPPFGGGTKLEIKR | 0.05
2) F1.280.1 human-murine chimeric antibody (antibody, human IgG1, kappa, V domains shown, Chimeric, human IgG1 / kappa) VH: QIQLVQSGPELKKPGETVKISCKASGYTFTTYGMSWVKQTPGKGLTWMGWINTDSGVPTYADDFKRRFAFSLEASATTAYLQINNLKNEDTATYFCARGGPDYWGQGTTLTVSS VL: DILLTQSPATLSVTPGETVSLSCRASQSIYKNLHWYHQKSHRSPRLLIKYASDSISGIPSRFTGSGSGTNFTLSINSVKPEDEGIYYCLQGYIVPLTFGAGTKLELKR | 0.05
